tested system: HLA-A*02:12
assay method text: IEDB peptide-MHC binding, purified MHC/competitive/fluorescence; filed as Kd, often an IC50 or EC50 that approximates it; bounds were set here for any values at or beyond the usual limits of such assays
setup conditions: source organism: Haemophilus influenzae 3655
experimental readout: Kd (nM)
// return numeric value only (unit: nM, not printed)

Give Kd (HLA-A*02:12) of the following sequence: LMTAISQGI
1.15

* * *

tested system: HLA-A*26:01
assay method text: IEDB peptide-MHC binding, purified MHC/direct/fluorescence; filed as Kd, often an IC50 or EC50 that approximates it; bounds were set here for any values at or beyond the usual limits of such assays
setup conditions: source organism: Camelpox virus M-96
experimental readout: pKd
Reminder that pKd is minus the log10 of a molar concentration.

// lookup pKd for ITMVNSLTY
6.59

* * *

tested system: HLA-A*02:02
assay method text: IEDB peptide-MHC binding, purified MHC/competitive/radioactivity; filed as Kd, often an IC50 or EC50 that approximates it; bounds were set here for any values at or beyond the usual limits of such assays
setup conditions: source organism: Homo sapiens
experimental readout: Kd (nM)
Write the number in nM without appending the unit.

construct sequence | result unit | experimental value
ELNDRFANYI | nM | 37.6

Then this sequence:
So what's the measured Kd for this one? DLNGAQIKL
2620

* * *

tested system: HLA-A*03:01
assay method text: IEDB peptide-MHC binding, purified MHC/direct/fluorescence; filed as Kd, often an IC50 or EC50 that approximates it; bounds were set here for any values at or beyond the usual limits of such assays
setup conditions: source organism: Influenza A virus (A/Memphis/14/1998(H3N2))
pKd: −log10 of the molar value.
experimental readout: pKd

Entry under review: SSFQDILLR . Reported pKd?
≤ 4.70

* * *

tested system: HLA-A*69:01
assay method text: IEDB peptide-MHC binding, purified MHC/direct/fluorescence; filed as Kd, often an IC50 or EC50 that approximates it; bounds were set here for any values at or beyond the usual limits of such assays
setup conditions: source organism: Francisella tularensis subsp. holarctica LVS
experimental readout: Kd (nM)
Respond numerically; units are nM and should not be typed.

# input sequence: FTLDADLGI ; wanted: its Kd
2.2

* * *

tested system: HLA-A*02:01
assay method text: IEDB peptide-MHC binding, purified MHC/direct/fluorescence; filed as Kd, often an IC50 or EC50 that approximates it; bounds were set here for any values at or beyond the usual limits of such assays
setup conditions: source organism: Haemophilus influenzae
experimental readout: Kd (nM)
Numeric only. Scale: nM

Look up Kd: LMTAISQGI
29.5

* * *

tested system: HLA-B*46:01
assay method text: IEDB peptide-MHC binding, purified MHC/competitive/fluorescence; filed as Kd, often an IC50 or EC50 that approximates it; bounds were set here for any values at or beyond the usual limits of such assays
setup conditions: source organism: Vibrio parahaemolyticus K5030
pKd: −log10 of the molar value.
experimental readout: pKd

Quick one: pKd for AGGWVLWKV ?
≤ 4.70

* * *

tested system: HLA-A*02:03
assay method text: IEDB peptide-MHC binding, purified MHC/direct/fluorescence; filed as Kd, often an IC50 or EC50 that approximates it; bounds were set here for any values at or beyond the usual limits of such assays
setup conditions: source organism: Campylobacter jejuni subsp. jejuni 81116
pKd: −log10 of the molar value.
experimental readout: pKd

Value lookup for pKd; key = YTNYPFLFF
≤ 4.70

* * *

tested system: HLA-B*18:01
assay method text: IEDB peptide-MHC binding, purified MHC/competitive/fluorescence; filed as Kd, often an IC50 or EC50 that approximates it; bounds were set here for any values at or beyond the usual limits of such assays
setup conditions: source organism: Neembucu hantavirus
experimental readout: Kd

Field request: Kd | item: ETESATLFT
≥ 20 µM

* * *

tested system: HLA-B*46:01
assay method text: IEDB peptide-MHC binding, purified MHC/competitive/fluorescence; filed as Kd, often an IC50 or EC50 that approximates it; bounds were set here for any values at or beyond the usual limits of such assays
setup conditions: source organism: Neembucu hantavirus
pKd: −log10 of the molar value.
experimental readout: pKd

Which pKd is reported for this sequence? ETESATLFT
≤ 4.70

* * *

tested system: HLA-B*07:02
assay method text: IEDB peptide-MHC binding, purified MHC/direct/fluorescence; filed as Kd, often an IC50 or EC50 that approximates it; bounds were set here for any values at or beyond the usual limits of such assays
setup conditions: source organism: Mycobacterium tuberculosis
Measured Kd values are reported for all entries that follow.

construct sequence | experimental value
AVFLSYIGY | ≥ 20 µM

Item ATADLELAY has what recorded Kd?
≥ 20 µM

* * *

tested system: HLA-A*31:01
assay method text: IEDB peptide-MHC binding, purified MHC/competitive/fluorescence; filed as Kd, often an IC50 or EC50 that approximates it; bounds were set here for any values at or beyond the usual limits of such assays
setup conditions: source organism: Variola virus
experimental readout: Kd (nM)
Answer in nM, number only, no unit symbol.

Which Kd value is on record for HMIDKLFYV ?
21.5

* * *

tested system: HLA-B*40:01
assay method text: IEDB peptide-MHC binding, purified MHC/direct/fluorescence; filed as Kd, often an IC50 or EC50 that approximates it; bounds were set here for any values at or beyond the usual limits of such assays
setup conditions: source organism: Vibrio parahaemolyticus
pKd: −log10 of the molar value.
pKd reference

May I ask what pKd has been recorded for RTHTLRDAK ?
≤ 4.70

Find the recorded pKd belonging to RSTLANGWY and report it.
≤ 4.70

* * *

tested system: HLA-B*15:01
assay method text: IEDB peptide-MHC binding, purified MHC/competitive/radioactivity; filed as Kd, often an IC50 or EC50 that approximates it; bounds were set here for any values at or beyond the usual limits of such assays
setup conditions: source organism: Vaccinia virus WR
Listing: Kd of selected sequences
State the answer as a number, implicitly in nM.

Record excerpt, results attached:
construct sequence | Kd / nM
KGCKLTETM | 1250
LFRFFECTF | 3030
KIFFRPTTI | 93
LLKPRCNPA | 20.6
RFRNHMCLV | 4090

Okay, next one:
Please tell me: Kd of MSIISFFPF , system HLA-B*15:01?
0.168

* * *

Items are presented alongside their recorded pKd.
tested system: HLA-B*58:01
assay method text: IEDB peptide-MHC binding, purified MHC/competitive/radioactivity; filed as Kd, often an IC50 or EC50 that approximates it; bounds were set here for any values at or beyond the usual limits of such assays
setup conditions: source organism: Dengue virus 2 Jamaica/1409/1983
pKd here: minus log base 10 of the concentration, concentration in moles per litre.

construct sequence | pKd
RSWPLNEAI | 8.15
MSSGNLLFTG | 6.04
IITASILLW | 7.84

Param item = PTSRTTWSIH ; retrieve measured pKd.
5.58

* * *

tested system: HLA-A*11:01
assay method text: IEDB peptide-MHC binding, purified MHC/direct/fluorescence; filed as Kd, often an IC50 or EC50 that approximates it; bounds were set here for any values at or beyond the usual limits of such assays
setup conditions: source organism: Amur virus
experimental readout: Kd

Query: Kd; subject: DVNGIRKPK
≥ 20 µM

* * *

tested system: HLA-B*27:03
assay method text: IEDB peptide-MHC binding, purified MHC/competitive/fluorescence; filed as Kd, often an IC50 or EC50 that approximates it; bounds were set here for any values at or beyond the usual limits of such assays
setup conditions: source organism: Camelpox virus CMS
experimental readout: Kd

For the sequence shown here, WVIDTLNGI , give the reported Kd.
≥ 20 µM

* * *

tested system: HLA-A*11:01
assay method text: IEDB peptide-MHC binding, purified MHC/direct/fluorescence; filed as Kd, often an IC50 or EC50 that approximates it; bounds were set here for any values at or beyond the usual limits of such assays
setup conditions: source organism: Bacillus anthracis
pKd: −log10 of the molar value.
experimental readout: pKd

Give the measured pKd of SQMPPQKIM .
≤ 4.70

* * *

tested system: HLA-A*02:03
assay method text: IEDB peptide-MHC binding, purified MHC/competitive/fluorescence; filed as Kd, often an IC50 or EC50 that approximates it; bounds were set here for any values at or beyond the usual limits of such assays
setup conditions: source organism: Bacillus anthracis str. A0488
experimental readout: Kd

Recorded Kd of KLWASFFQG , please.
≥ 20 µM

* * *

tested system: HLA-A*69:01
assay method text: IEDB peptide-MHC binding, purified MHC/direct/fluorescence; filed as Kd, often an IC50 or EC50 that approximates it; bounds were set here for any values at or beyond the usual limits of such assays
setup conditions: source organism: Marburg virus - Musoke, Kenya, 1980
experimental readout: Kd (nM)
The figure you give is taken to be in nM; do not add the unit.

State the recorded Kd for this entry: WLDSVIQYL
963

* * *

tested system: HLA-A*30:01
assay method text: IEDB peptide-MHC binding, purified MHC/competitive/radioactivity; filed as Kd, often an IC50 or EC50 that approximates it; bounds were set here for any values at or beyond the usual limits of such assays
setup conditions: source organism: Dengue virus 1 Brazil/97-11/1997
Items are presented alongside their recorded pKd.
As a rule, pKd stands for the negative log10 of the concentration, concentration in M.

Requested field: pKd. Item: SILLSSLLK
5.67

Report pKd for LARWSSFKK please.
8.17
